target: UniProt P26663; assay: In vitro RNA-dependent RNA polymerase assay (Assay 1), polyA/oligo dT, TCA precipitation; format: biochemical; details: polyA/oligo dT template/primer, 200 ng NS5B, 2 h at 22° C.; read-out: RNA pol Assay 1 IC50 (μm)
MEASUREMENT_TYPE: IC50

O=C(O)[C@H](Cc1ccccc1)N(Cc1ccc(-c2ccc(F)c(Cl)c2)o1)C(=O)c1ccc(Cl)cc1Cl [compound #69] | < 5 µM
O=C(O)[C@H](Cc1ccccc1)N(Cc1cccc(Br)c1)C(=O)c1ccc(Cl)cc1I [compound #35] | < 5 µM

O=C(O)[C@H](Cc1ccccc1)N(Cc1cccc(Br)c1)C(=O)c1ccc(Cl)c(Cl)c1 [compound #19] yielded IC50 of > 20 µM

O=C(O)[C@H](Cc1ccccc1)N(Cc1cccc(-c2cc3ccccc3o2)c1)C(=O)Cc1ccc(Cl)cc1Cl [compound #37] yielded IC50 of < 5 µM

COc1cc(C)c(S(=O)(=O)N(Cc2cccc(I)c2)[C@@H](Cc2ccccc2)C(=O)O)c(C)c1C [compound #13] yielded IC50 of 5 to 20 µM

O=C(O)C(Cc1ccccc1)N(Cc1ccc(-c2cc3ccccc3o2)cc1)C(=O)c1ccc(Cl)cc1Cl (stereo in doubt) [compound #4] yielded IC50 of < 5 µM

O=C(O)[C@H](Cc1ccccc1)N(Cc1cccc(-c2cc3ccccc3o2)c1)C(=O)c1ccc(Cl)cc1Br [compound #49] yielded IC50 of < 5 µM

====

molecular target: HCV NS5B RNA-dependent RNA polymerase (Hepatitis C virus genotype 1b); experiment: In vitro RNA-dependent RNA polymerase assay (Assay 1), polyA/oligo dT, TCA precipitation; type: biochemical; conditions: polyA/oligo dT template/primer, 200 ng NS5B, 2 h at 22° C.; read-out: RNA pol Assay 1 IC50 (μm)
Below: a set of entries, each annotated with reported IC50.

Entry O=C(O)[C@H](Cc1ccccc1)N(Cc1cc(-c2ccc(Cl)cc2Cl)cs1)C(=O)c1ccc(Cl)cc1Cl , HCV NS5B RNA-dependent RNA polymerase (Hepatitis C virus genotype 1b) data, IC50 value: < 5 µM

Entry O=C(O)[C@H](Cc1ccccc1)N(Cc1ccc(-c2cc(F)cc(F)c2)o1)C(=O)c1ccc(Cl)cc1Cl , HCV NS5B RNA-dependent RNA polymerase (Hepatitis C virus genotype 1b) data, IC50 value: < 5 µM

====

Molecular target: HCV NS5B RNA-dependent RNA polymerase (Hepatitis C virus genotype 1b, UniProt P26663)
Sequence (P26663 2420-3010 limits assumed): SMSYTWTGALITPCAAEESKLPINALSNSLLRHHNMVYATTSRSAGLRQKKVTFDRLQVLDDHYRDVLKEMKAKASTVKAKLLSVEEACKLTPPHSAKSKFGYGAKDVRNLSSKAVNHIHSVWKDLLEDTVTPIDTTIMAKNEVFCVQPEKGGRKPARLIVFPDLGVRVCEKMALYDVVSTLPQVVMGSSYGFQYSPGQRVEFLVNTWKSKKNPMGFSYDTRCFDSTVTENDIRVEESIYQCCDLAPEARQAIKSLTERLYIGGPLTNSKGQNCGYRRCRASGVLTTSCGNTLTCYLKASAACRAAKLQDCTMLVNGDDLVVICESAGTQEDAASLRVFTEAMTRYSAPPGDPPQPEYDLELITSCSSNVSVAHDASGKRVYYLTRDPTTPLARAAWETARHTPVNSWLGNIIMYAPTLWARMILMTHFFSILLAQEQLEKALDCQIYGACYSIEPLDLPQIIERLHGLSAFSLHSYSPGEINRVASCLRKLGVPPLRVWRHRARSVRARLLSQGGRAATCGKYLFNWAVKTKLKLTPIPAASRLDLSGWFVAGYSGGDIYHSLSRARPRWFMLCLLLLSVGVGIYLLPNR
Assay: In vitro RNA-dependent RNA polymerase assay (Assay 1), polyA/oligo dT, TCA precipitation
Type: biochemical
Settings: polyA/oligo dT template/primer, 200 ng NS5B, 2 h at 22° C.; read-out: RNA pol Assay 1 IC50 (μm)
Procedure: Purification of Recombinant NS5B Using Fast Protein Liquid Chromatography (FPLC): Soluble NS5B protein in the S3 fraction was diluted to lower the NaCl concentration to 300 mM, then it incubated batchwise with DEAE sepharose beads (Amersham-Pharmacia) for 2 hrs at 4° C., as described by Behrens et al. (1996). Unbound material was cleared by centrifugation for 15 min at 4° C., at 25,000 rpm using a SW41 rotor (Beckman). […] Eluted fractions were analyzed by SDS-PAGE and western blotting. […]
Below: a set of entries, each annotated with reported IC50.

Please review the entries below; each comes with its answer.
O=C(O)[C@H](Cc1ccccc1)N(CC#Cc1cc2ccccc2o1)C(=O)c1ccc(Cl)cc1Cl [compound #113] | < 5 µM
COc1cc(C)c(S(=O)(=O)N(Cc2ccc(I)cc2)[C@@H](Cc2ccccc2)C(=O)O)c(C)c1C [compound #16] | 5 to 20 µM
O=C(c1cccc(CN(C(=O)c2ccc(Cl)cc2Cl)[C@@H](Cc2ccccc2)C(=O)O)c1)c1ccc(F)cc1F [compound #42] | < 5 µM
C=C(Br)CN(C(=O)c1ccc(Cl)cc1Cl)C(Cc1ccccc1)C(=O)O (stereo not shown) [compound #116] | 5 to 20 µM
Cc1onc(-c2ccccc2Cl)c1C(=O)c1cccc(CN(C(=O)c2ccc(Cl)cc2Cl)[C@@H](Cc2ccccc2)C(=O)O)c1 [compound #43] | < 5 µM

O=C(O)c1ccc(-c2ccc(CN(C(=O)c3ccc(Cl)cc3Cl)[C@@H](Cc3ccccc3)C(=O)O)o2)cc1 [compound #77] yielded IC50 of < 5 µM

O=C(O)[C@H](Cc1ccccc1)N(Cc1cccc(-c2nc3ccccc3o2)c1)C(=O)c1ccc(Cl)cc1Cl [compound #45] yielded IC50 of < 5 µM
